molecular target: Y2 receptor (Homo sapiens, UniProt P49146); experiment: Particulate Y2 agonist binding; conditions: read-out: ic50, agonist binding to Y2-CHO particulates
Sequence (P49146 whole entry): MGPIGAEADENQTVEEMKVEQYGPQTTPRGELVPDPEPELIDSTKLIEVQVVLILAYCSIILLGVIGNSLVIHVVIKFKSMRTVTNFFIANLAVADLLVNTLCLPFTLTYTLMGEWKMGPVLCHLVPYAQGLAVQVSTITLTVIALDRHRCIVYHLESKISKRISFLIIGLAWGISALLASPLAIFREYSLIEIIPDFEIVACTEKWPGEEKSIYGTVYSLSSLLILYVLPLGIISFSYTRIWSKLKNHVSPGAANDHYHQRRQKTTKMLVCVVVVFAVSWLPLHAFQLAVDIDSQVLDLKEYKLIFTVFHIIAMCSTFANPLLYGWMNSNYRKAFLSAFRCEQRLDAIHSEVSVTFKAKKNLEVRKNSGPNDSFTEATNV
pIC50: −log10 of the molar value.
outcomeMeasure: pIC50

Dear colleague, I am looking for the recorded pIC50 of the following molecule: CCCCC[C@@H](O)[C@H]1C(=O)O[C@H](C)[C@@H](O)/C=C/C=C/C=C/C=C/C=C(\C)[C@@H](O)C[C@H](O)C[C@H](O)C[C@H](O)C[C@H](O)C[C@H](O)C[C@@H]1O
~4.00
